target: human 11b-HSD1 (Homo sapiens); construct: expressed in transfected cells; assay: cell-based assay, stable CHO cell line expressing human 11b-HSD1, cortisol measured with DiscoverX HitHunter Cortisol Assay; conditions: CHO cells expressing human 11b-HSD1; serum-free media; 500 nM cortisone, 120 minutes; read-out: Human 1C50
Sequence (P28845 whole entry): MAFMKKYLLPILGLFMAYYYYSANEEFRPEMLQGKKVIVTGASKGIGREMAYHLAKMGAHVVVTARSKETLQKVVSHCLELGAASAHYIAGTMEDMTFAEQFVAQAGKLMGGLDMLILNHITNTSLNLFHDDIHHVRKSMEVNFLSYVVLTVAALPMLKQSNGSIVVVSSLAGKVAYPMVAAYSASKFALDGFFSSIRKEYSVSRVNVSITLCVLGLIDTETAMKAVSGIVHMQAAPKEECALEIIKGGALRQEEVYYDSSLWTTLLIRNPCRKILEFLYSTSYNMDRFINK
pIC50: −log10 of the molar value.
Would you mind telling me the reported pIC50 of each entry?

| compound | result |
| --- | --- |
| NC(c1ccc(C(=O)N2CCCCC2)cc1)(C(F)(F)F)C(F)(F)F | < 5.00 |
| CCN(CC)S(=O)(=O)c1ccc(C(N)(C(F)(F)F)C(F)(F)F)cc1 | 6.25 |

Hi team, please reply with pIC50 for each item in this list.
1. CCN(CC)S(=O)(=O)c1cccc(C(N)(C(F)(F)F)C(F)(F)F)c1
2. C[C@@H]1CN(c2ccc(C(N)(C(F)(F)F)C(F)(F)F)cc2C(F)(F)F)CCN1S(=O)(=O)c1ccc(C(C)(O)C(F)(F)F)cc1 (some centres unmarked)
3. NC(c1cccc(C(=O)N2CCCCC2)c1)(C(F)(F)F)C(F)(F)F
4. CC(C)(C)OC(=O)N(C1CCCCC1)S(=O)(=O)c1cccc(C(N)(C(F)(F)F)C(F)(F)F)c1
5. C[C@@H]1CN(c2ccc(C(N)(C(F)(F)F)C(F)(F)F)nc2)CCN1S(=O)(=O)c1cccc(C(C)(O)C(F)(F)F)c1 (some centres unmarked)
6. NC(c1cccc(S(=O)(=O)N2CCCC2)c1)(C(F)(F)F)C(F)(F)F
7. NC(c1ccc(S(=O)(=O)N2CCCCC2)cc1)(C(F)(F)F)C(F)(F)F
8. NC(c1cccc(S(=O)(=O)N2CCCCC2)c1)(C(F)(F)F)C(F)(F)F

Reply:
["< 5.00", 7.05, 5.62, "< 5.00", "> 8.00", "< 5.00", 6.37, "< 5.00"]

---

target: mouse 11b-HSD1 (Mus musculus, UniProt P50172); construct: expressed in transfected cells; assay: cell-based assay, stable CHO cell line expressing mouse 11b-HSD1, cortisol measured with DiscoverX HitHunter Cortisol Assay; details: CHO cells expressing mouse 11b-HSD1; serum-free media; 500 nM cortisone, 120 minutes; read-out: Mouse 1C50
Sequence (P50172 whole entry): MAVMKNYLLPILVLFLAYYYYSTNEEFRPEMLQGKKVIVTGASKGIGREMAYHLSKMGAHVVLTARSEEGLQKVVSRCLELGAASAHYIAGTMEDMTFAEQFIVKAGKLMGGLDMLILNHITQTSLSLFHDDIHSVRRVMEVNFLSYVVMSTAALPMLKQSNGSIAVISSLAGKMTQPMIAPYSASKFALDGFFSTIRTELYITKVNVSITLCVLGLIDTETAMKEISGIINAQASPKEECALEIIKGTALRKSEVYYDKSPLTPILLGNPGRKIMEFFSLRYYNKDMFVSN
Please provide measured IC50 for the entries that follow.

Answered examples (3):
| compound | system tested | endpoint label | result |
| --- | --- | --- | --- |
| NC(c1ccc(S(=O)(=O)N2CCCCC2)cc1)(C(F)(F)F)C(F)(F)F | mouse 11b-HSD1 (Mus musculus, UniProt P50172) | IC50 | 613 nM |
| COc1ccc(N(C(=O)OC(C)(C)C)S(=O)(=O)c2cccc(C(N)(C(F)(F)F)C(F)(F)F)c2)cc1 | mouse 11b-HSD1 (Mus musculus, UniProt P50172) | IC50 | > 10000 nM |
| C[C@@H]1CN(c2ccc(C(N)(C(F)(F)F)C(F)(F)F)cc2C(F)(F)F)CCN1S(=O)(=O)c1ccc(C(C)(O)C(F)(F)F)cc1 (stereo partly shown) | mouse 11b-HSD1 (Mus musculus, UniProt P50172) | IC50 | < 100 nM |

Query: If you can, please state the reported IC50 value of CCN(CC)S(=O)(=O)c1cccc(C(N)(C(F)(F)F)C(F)(F)F)c1 .
Reply: > 10000 nM
